Would you kindly list log10 Kd for each of these binders?
target: T1, human PCSK9 (proprotein convertase subtilisin kexin type 9) (human, UniProt Q8NBP7 31-692); test: BLI Octet Red, 37 C
T1 construct: Directly immobilized (SPR ProteOn), biotinylated (BLI), or in solution, depending on the assay; also called hPCSK9
T1 sequence (Q8NBP7 31-692 limits assumed): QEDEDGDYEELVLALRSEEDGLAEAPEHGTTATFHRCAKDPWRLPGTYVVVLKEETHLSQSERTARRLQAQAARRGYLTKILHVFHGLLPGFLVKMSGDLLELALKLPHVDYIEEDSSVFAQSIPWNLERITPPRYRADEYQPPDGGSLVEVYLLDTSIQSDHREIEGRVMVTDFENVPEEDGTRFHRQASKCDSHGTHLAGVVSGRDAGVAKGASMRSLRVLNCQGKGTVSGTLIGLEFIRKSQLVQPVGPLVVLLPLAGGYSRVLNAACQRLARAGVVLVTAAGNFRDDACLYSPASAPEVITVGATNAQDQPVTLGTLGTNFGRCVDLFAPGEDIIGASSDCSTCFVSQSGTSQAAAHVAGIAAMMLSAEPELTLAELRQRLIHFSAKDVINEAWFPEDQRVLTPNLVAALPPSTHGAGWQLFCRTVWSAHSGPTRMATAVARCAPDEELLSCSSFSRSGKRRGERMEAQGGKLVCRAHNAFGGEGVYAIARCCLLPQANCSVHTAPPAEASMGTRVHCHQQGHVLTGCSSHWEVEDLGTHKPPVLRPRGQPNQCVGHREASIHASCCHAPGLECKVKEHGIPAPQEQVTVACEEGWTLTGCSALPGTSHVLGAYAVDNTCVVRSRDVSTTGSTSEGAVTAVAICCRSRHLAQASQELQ
Recall that a logarithmic scale is used here: each number is log10 of Kd in nM.

Could you please provide reported log10 Kd for 2381D04 (designed binder, Anti-PCSK9 Adnectin, His6-tagged) MGVSDVPRDLEVVAATPTSLLISWEPFSRLPGGGEYYRITYGETGGNSPLQQFTVPGSKGTATISGLKPGVDYTITVYAVEFPYDHSGYYHRPISINYRTEIDKPSQHHHHHH ? Thanks! -0.63

Could you please provide reported log10 Kd for 2382D03 (designed binder, Anti-PCSK9 Adnectin, His6-tagged) MGVSDVPRDLEVVAATPTSLLISWDAPADEAYGYYRITYGETGGNSPVQEFTVPVSKGTATISGLKPGVDYTITVYAVEFDFPGAGYYHRPISINYRTEIDKPSQHHHHHH ? Thanks! 0.18

Could you please provide reported log10 Kd for 2382B09 (designed binder, Anti-PCSK9 Adnectin, His6-tagged) MGVSDVPRDLEVVAATPTSLLISWDAPADAYGYYRITYGETGGNSPVQEFTVPVSKGTATISGLKPGVDYTITVYAVEFDYPGSGYYHRPISINYRTEIDKPSQHHHHHH ? Thanks! -0.18

Could you please provide reported log10 Kd for 2381B08 (designed binder, Anti-PCSK9 Adnectin, His6-tagged) MGVSDVPRDLEVVAATPTSLLISWDAPADGGYGYYRITYGETGGNSPVQEFTVPSSKGTATISGLKPGVDYTITVYAVEYTFPGAGYYHRPISINYRTEIDKPSQHHHHHH ? Thanks! 0.61

Could you please provide reported log10 Kd for 2382D09 (designed binder, Anti-PCSK9 Adnectin, His6-tagged) MGVSDVPRDLEVVAATPTSLLISWDAPAEGYGYYRITYGETGGNSPVQEFTVPVSKGTATISGLKPGVDYTITVYAVEFDFPGAGYYHRPISINYRTEIDKPSQHHHHHH ? Thanks! -0.52

Could you please provide reported log10 Kd for 2382G04 (designed binder, Anti-PCSK9 Adnectin, His6-tagged) MGVSDVPRDLEVVAATPTSLLISWDAPAGGGYGYYRITYGETGGNSPVQEFTVPSSKGTATISGLKPGVDYTITVYAVEFDFPGAGYYHRPISINYRTEIDKPSQHHHHHH ? Thanks! 0.05
